Attribution: patent US9724351B2

assay: Cytotoxicity Determination; assay type: cell-based; conditions: human, HEp-2 cells, without addition of virus, CCK-8 readout, bins (Table 4: greater than 100 μM; Table 5: equal to or less than 100 μM and greater than 10 μM), read-out: 50% cytotoxicity concentration (CC50)
MEASURED_PARAMETER: CC50 at 5 days

Recorded results for 3 compounds are shown here.
CCOc1ccc(C(=O)NCC(=O)N/N=C(\C)c2csc3ccccc23)cc1OCC = 10 to 100 µM
CCOc1cc(-c2nc(C(=O)CNC(=O)c3ccc(OC)c(OC)c3)ccc2OC)cc2ccccc12 = > 100 µM
COc1ccc(C(=O)NCC(=O)c2csc(-c3csc4c(F)cccc34)n2)cc1OC = > 100 µM

Ask: Consider the compound shown here: `CCSc1ccc(C(=O)NCC(=O)N/N=C/c2csc3ccccc23)cc1` What is its recorded CC50 at 5 days?
Result: 10 to 100 µM

Ask: Then this compound: `COc1ccc(C(=O)NCC(=O)N/N=C(\C)c2csc(-c3ccccc3)c2)cc1OC`
Result: > 100 µM

Ask: Then this compound: `CCOc1ccc(C(=O)NCC(=O)N/N=C(\C)c2csc3cccnc23)cc1OC`
Result: 10 to 100 µM

Ask: Then this compound: `COc1ccc(C(=O)NCC(=O)N/C=C/c2csc3ccccc23)cc1OC`
Result: 10 to 100 µM

Ask: Then this compound: `COc1cc(C(=O)CNC(=O)c2ccc(OCCN)c(OC)c2)nc(-c2csc3c(F)cccc23)c1`
Result: 10 to 100 µM

Ask: Then this compound: `COc1ccc(C(=O)NCC(=O)N/N=C(\C)c2csc3c2CCCC3)cc1OC`
Result: > 100 µM

Ask: Then this compound: `COc1ccc(C(=O)NCC(=O)N/N=C(\C)c2cccc3ccccc23)cc1OC`
Result: 10 to 100 µM

Ask: Then this compound: `CCOc1ccc(C(=O)NCC(=O)N/N=C/c2coc3c(F)cccc23)cc1OC`
Result: > 100 µM

Ask: Then this compound: `COCC/C(=N\NC(=O)CNC(=O)c1ccc(OC)c(OC)c1)c1csc2c(F)cccc12`
Result: > 100 µM

Ask: Then this compound: `CCCn1nc(-c2csc3c(F)cccc23)nc1C(=O)CNC(=O)c1ccc(OC)c(OC)c1`
Result: > 100 µM

Ask: Then this compound: `CCOc1ccc(C(=O)NCC(=O)N/N=C/c2csc3ccccc23)cc1OCC`
Result: 10 to 100 µM

Ask: Then this compound: `COc1ccc(C(=O)NCC(=O)N/N=C2\CCSc3ccccc32)cc1OC`
Result: > 100 µM

Ask: Then this compound: `COc1ccc(C(=O)NCC(=O)N/N=C/c2c(C)[nH]c3ccccc23)cc1OC`
Result: > 100 µM

Ask: Then this compound: `CCOc1ccc(C(=O)NCC(=O)NNC(=O)c2csc3cccnc23)cc1OC`
Result: 10 to 100 µM
